Provide the reported amount of H2O2, 0.5 μM Aβ1-42 Cu/Aβ = 0.75 of each item.
Target: copper complexes of Aβ1-42 peptide (Homo sapiens)
Construct: The β-amyloid peptide Aβ1-42 (Aβ1-42) was synthesised, purified (to a purity greater than 95%); made in house; host or cells: chemical peptide synthesis (no expression host)
Sequence (P05067 672-713 limits assumed, one chain of several): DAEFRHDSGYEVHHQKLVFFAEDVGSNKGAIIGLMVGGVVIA
Assay: Hydrogen peroxide produced by Aβ1-42 in the presence of CuCl2, ascorbate, air and ligand (Amplex Red H2O2/HRP)
Format: biochemical
Conditions: ligand 1 eq/Cu(II) (0.4 μM); CuCl2 0.4 μM, ascorbate 10 μM, air
Give bare numbers, in nmol.

Below, each entry is followed by its recorded amount of H2O2, 0.5 μM Aβ1-42 Cu/Aβ = 0.75 result.
MOLECULE | UNIT_LABEL | REPORTED_VALUE
Oc1cccc2ccc(CCc3ccc4cccc(O)c4n3)nc12 | nmol | 0.68
CCCCN(c1ccc2cccc(N)c2n1)c1ccc2cccc(N)c2n1 | nmol | 0.49
Oc1cccc2cccnc12 [8-hydroxyquinoline, reference compound] | nmol | 0.75
CC(C)(c1ccc2c(Cl)ccc(O)c2n1)c1ccc2c(Cl)ccc(O)c2n1 | nmol | 0.35
Oc1cccc2ccc(Cc3ccc4cccc(O)c4n3)nc12 [Compound 1, 2,2′-methanediyl-bis(8-hydroxyquinoline)] | nmol | 0.76
O=C(Nc1ccc2cccc(O)c2n1)c1ccc2cccc(O)c2n1 | nmol | 0.45
Oc1ccc(Cl)c2ccc(CCc3ccc4c(Cl)ccc(O)c4n3)nc12 | nmol | 0.64
Oc1ccc(Cl)c2ccc(Cc3ccc4c(Cl)ccc(O)c4n3)nc12 | nmol | 0.61

Give amount of H2O2, 0.5 μM Aβ1-42 Cu/Aβ = 0.75 for each of the items listed below.
1. Oc1c(I)cc(Cl)c2ccc(CCc3ccc4c(Cl)cc(I)c(O)c4n3)nc12
2. c1cnc2c(NCCCNc3cccc4cccnc34)cccc2c1
3. O=C(Nc1cccc2cccnc12)c1cccc2cccnc12 [Compound 24, N-8-quinolinyl-8-quinoline carboxamide]
4. Cc1ccc2cccc(NCCNc3cccc4ccc(C)nc34)c2n1

## Result
1. 0.82
2. 0.70
3. 0.47
4. 0.78

Give amount of H2O2, 0.5 μM Aβ1-42 Cu/Aβ = 0.75 for each of the items listed below.
1. Oc1c(I)cc(Cl)c2cccnc12 [Clioquinol, reference compound]
2. CC(C)(c1ccc2cccc(O)c2n1)c1ccc2cccc(O)c2n1

## Result
0.64
0.55
